Reference source for all entries: patent US8389565B2

# Target Entity: glucoamylase G2 form from Aspergillus niger (Aspergillus niger, UniProt P69328)
# Construct: purchased Novo Nordisk, Bagsvaerd, Denmark
# Sequence (P69328 other isoform, or with tags, fused parts or gaps): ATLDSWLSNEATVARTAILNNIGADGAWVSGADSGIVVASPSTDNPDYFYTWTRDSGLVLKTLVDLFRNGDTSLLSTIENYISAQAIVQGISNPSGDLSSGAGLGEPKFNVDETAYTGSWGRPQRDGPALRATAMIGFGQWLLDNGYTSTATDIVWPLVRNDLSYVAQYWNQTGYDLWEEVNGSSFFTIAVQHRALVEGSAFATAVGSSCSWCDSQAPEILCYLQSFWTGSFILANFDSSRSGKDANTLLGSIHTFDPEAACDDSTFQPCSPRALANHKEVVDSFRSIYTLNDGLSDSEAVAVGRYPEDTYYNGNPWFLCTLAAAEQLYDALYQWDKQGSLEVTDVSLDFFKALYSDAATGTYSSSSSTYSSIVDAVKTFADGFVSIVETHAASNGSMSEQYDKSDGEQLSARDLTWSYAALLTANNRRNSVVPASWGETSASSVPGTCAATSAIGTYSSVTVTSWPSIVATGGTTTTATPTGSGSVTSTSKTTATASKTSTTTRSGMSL
# Test Details: Inhibition of glucoamylase G2-catalyzed hydrolysis of maltose
# Type: biochemical
List of Ki values.
Report only the number, with the unit mM understood.

Here is how some molecules turned out for Ki.
Molecule: O=S(=O)([O-])O[C@H](CO)[C@@H](O)C[S@+]1C[C@@H](O)[C@H](O)[C@H]1CO
Unit Symbol: mM
Assay Result: 1.06
//
Molecule: O=S(=O)([O-])O[C@@H](CO)[C@H](O)C[S@+]1C[C@@H](O)[C@H](O)[C@H]1CO
Unit Symbol: mM
Assay Result: 1.71
//
Molecule: O=S(=O)([O-])OC(CO)C(O)C[S+]1CC(O)C(O)C1CO (centres unmarked) [Salacinol, reference compound]
Unit Symbol: mM
Assay Result: 1.7

Next:
Give Ki for the following molecule: O=S(=O)([O-])O[C@H](CO)[C@@H](O)C[S@@+]1C[C@H](O)[C@@H](O)[C@@H]1CO
2.17

* * *

Let's go through some pKi measurements on Human Pancreatic α-Amylase (HPA) (Homo sapiens, UniProt P04746) together.
Sequence (P04746 16-511): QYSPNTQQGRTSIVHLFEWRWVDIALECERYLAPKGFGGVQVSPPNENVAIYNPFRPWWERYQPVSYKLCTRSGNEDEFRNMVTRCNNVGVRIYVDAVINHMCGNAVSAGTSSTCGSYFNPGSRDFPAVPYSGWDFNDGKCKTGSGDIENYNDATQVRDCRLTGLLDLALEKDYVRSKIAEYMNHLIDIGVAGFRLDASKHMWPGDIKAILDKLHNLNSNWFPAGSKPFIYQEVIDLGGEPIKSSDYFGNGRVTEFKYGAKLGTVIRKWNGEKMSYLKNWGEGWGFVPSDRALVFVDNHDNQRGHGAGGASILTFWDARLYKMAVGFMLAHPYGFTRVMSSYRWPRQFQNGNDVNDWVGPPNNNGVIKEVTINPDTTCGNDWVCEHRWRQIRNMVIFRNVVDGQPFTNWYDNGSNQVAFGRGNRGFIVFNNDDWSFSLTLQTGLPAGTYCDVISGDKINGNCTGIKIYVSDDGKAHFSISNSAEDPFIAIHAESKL
pKi (log units): -log10 of the concentration in mol/L.

Mol Smiles: O=S(=O)(O)O[C@H](CO)[C@@H](O)CN1C[C@H](O)[C@@H](O)[C@@H]1CO
pKi: 3.40

Next:
Give pKi for the following compound: O=S(=O)([O-])O[C@@H](CO)[C@H](O)C[S@+]1C[C@@H](O)[C@H](O)[C@H]1CO
4.12

* * *

# Target Entity: Maltase Glucoamylase (MGA) (Homo sapiens, UniProt O43451)
# Sequence (O43451 87-954 limits assumed): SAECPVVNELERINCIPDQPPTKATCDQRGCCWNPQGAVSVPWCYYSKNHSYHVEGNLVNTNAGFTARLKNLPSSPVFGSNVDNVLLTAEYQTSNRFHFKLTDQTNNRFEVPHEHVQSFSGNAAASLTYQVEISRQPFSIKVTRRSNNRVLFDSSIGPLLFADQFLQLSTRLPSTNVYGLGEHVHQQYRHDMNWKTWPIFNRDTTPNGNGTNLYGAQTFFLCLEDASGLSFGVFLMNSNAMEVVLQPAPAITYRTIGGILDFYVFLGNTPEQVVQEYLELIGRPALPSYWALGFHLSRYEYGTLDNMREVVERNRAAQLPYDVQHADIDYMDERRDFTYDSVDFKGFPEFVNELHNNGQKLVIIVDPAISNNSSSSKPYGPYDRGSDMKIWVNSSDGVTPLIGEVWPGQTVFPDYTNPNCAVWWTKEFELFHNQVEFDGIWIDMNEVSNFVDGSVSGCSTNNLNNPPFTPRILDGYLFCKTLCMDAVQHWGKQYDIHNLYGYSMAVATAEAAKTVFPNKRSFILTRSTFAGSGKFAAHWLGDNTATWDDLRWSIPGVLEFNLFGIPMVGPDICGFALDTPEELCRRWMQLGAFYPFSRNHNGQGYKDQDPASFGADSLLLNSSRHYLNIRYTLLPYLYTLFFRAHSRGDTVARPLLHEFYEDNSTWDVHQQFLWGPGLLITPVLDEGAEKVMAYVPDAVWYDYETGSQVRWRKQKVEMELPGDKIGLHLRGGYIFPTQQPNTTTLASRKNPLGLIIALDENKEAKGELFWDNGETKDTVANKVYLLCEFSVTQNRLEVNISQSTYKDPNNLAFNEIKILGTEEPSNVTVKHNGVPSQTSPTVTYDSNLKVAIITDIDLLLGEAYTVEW
# Test Details: Inhibition of recombinant human maltase glucoamylase (MGA), maltose substrate, glucose oxidase readout
# Type: biochemical
# Reported Conditions: read-out: IC50 value against recombinant human MGA
List of pIC50 values.
pIC50 (log units): -log10 of the concentration in mol/L.

Molecule: O=S(=O)(O)OC(C(O)CN1CC(O)C(O)C1CO)C(O)C(O)CO (single isomer, unassigned) [Compound 255]
Target Entity: Maltase Glucoamylase (MGA) (Homo sapiens, UniProt O43451)
Value Type: pIC50
Assay Result: 4.52

Give pIC50 for the following molecule: O=S(=O)(O)OC(C(O)CN1CC(O)C(O)C1CO)C(O)C(O)CO (single isomer, unassigned) [Compound 252]
4.00

* * *

List of pKi values.
# Target Entity: Recombinant barley α-amylase isozyme 1 (AMY1) (Hordeum vulgare)
# Construct: made in house
# Sequence (P00693 25-438): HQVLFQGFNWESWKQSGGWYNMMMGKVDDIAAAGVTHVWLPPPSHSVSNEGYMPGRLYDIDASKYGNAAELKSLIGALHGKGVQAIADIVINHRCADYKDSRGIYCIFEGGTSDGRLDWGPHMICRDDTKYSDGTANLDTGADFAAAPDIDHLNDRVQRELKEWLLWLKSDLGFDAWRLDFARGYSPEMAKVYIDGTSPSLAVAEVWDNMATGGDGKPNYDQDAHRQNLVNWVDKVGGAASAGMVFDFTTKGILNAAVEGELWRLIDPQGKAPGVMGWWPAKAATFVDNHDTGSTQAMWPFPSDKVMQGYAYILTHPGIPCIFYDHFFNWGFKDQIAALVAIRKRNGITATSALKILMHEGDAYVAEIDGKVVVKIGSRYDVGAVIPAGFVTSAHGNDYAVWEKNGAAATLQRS
# Test Details: Inhibition of barley α-amylase isozyme 1 activity towards DP17 amylose
# Type: biochemical
pKi: −log10 of the molar value.

Mol Smiles: O=S(=O)([O-])O[C@H](CO)[C@@H](O)C[Se@+]1C[C@@H](O)[C@H](O)[C@H]1CO
pKi: < 2.30

Give pKi for the following molecule: O=S(=O)([O-])O[C@@H](CO)[C@H](O)C[Se@+]1C[C@@H](O)[C@H](O)[C@H]1CO
< 2.30

* * *

List of Ki values.
# Target Entity: glucoamylase G2 form from Aspergillus niger (Aspergillus niger, UniProt P69328)
# Construct: purchased Novo Nordisk, Bagsvaerd, Denmark
# Test Details: Inhibition of glucoamylase G2-catalyzed hydrolysis of maltose
# Format: biochemical
# Reported Conditions: read-out: Ki GA (Glucoamylase)

Here is how some molecules turned out for Ki.
Molecule: O=S(=O)(O)O[C@@H](CO)[C@H](O)CN1C[C@@H](O)[C@H](O)[C@H]1CO
Assay Result: > 2.5 mM

Molecule: O=S(=O)(O)O[C@H](CO)[C@@H](O)CN1C[C@H](O)[C@@H](O)[C@@H]1CO
Assay Result: > 8 mM

Molecule: O=S(=O)(O)O[C@@H](CO)[C@H](O)CN1C[C@H](O)[C@@H](O)[C@H]1CO
Assay Result: > 30 mM

Molecule: OC1C[S+]2CCCC2[C@@H](O)C1O (some centres unmarked)
Assay Result: 1.32 mM

Give Ki for the following molecule: O=S(=O)([O-])O[C@H](CO)[C@@H](O)C[Se@+]1C[C@@H](O)[C@H](O)[C@H]1CO
> 9 mM
